Data provenance: ChEMBL document CHEMBL3526001

Reported Ratio is given for each of the following compounds.
- Test system: MDCK
- Method: Efflux ratio of permeability from basolateral to apical over apical to basolateral side of MDCK cells expressing BCRP
- Type: ADME, cell-based, Canis lupus familiaris
- Measurement Parameters: dog
Observed Property: Ratio

1) Cc1ccccc1N1C(=O)c2cc(S(N)(=O)=O)c(Cl)cc2NC1C (stereo unspecified) : 5.1
2) C[C@H]1O[C@@H](O[C@H]2[C@@H](O)C[C@H](O[C@H]3[C@@H](O)C[C@H](O[C@H]4CC[C@@]5(C)[C@H](CC[C@@H]6[C@@H]5C[C@@H](O)[C@]5(C)[C@@H](C7=CC(=O)OC7)CC[C@]65O)C4)O[C@@H]3C)O[C@@H]2C)C[C@H](O)[C@@H]1O : 1.3
3) CC[C@]1(O)C[C@@H]2CN(CCc3c([nH]c4ccccc34)[C@@](C(=O)OC)(c3cc4c(cc3OC)N(C)[C@H]3[C@@](O)(C(=O)OC)[C@H](OC(C)=O)[C@]5(CC)C=CCN6CC[C@]43[C@@H]65)C2)C1 : 1.8
4) CC[C@@]1(O)C(=O)OCc2c1cc1n(c2=O)Cc2cc3c(CN(C)C)c(O)ccc3nc2-1 : 2.4
5) COc1cc([C@@H]2c3cc4c(cc3[C@@H](O[C@@H]3O[C@@H]5CO[C@@H](C)O[C@H]5[C@H](O)[C@H]3O)[C@H]3COC(=O)[C@H]23)OCO4)cc(OC)c1O [ETOPOSIDE] : 9.7
6) CC[C@H]1OC(=O)[C@H](C)[C@@H](O[C@H]2C[C@@](C)(OC)[C@@H](O)[C@H](C)O2)[C@H](C)[C@@H](O[C@@H]2O[C@H](C)C[C@H](N(C)C)[C@H]2O)[C@](C)(O)C[C@@H](C)C(=O)[C@H](C)[C@@H](O)[C@]1(C)O : 8.5

====

Reported efflux ratio at 2 h, 10 µM is given for each of the following molecules.
- System: P-gp
- Method: in vitro
- Measurement Parameters: human, Caco-2, with LY335979 1 uM
Numbered stars: 1 amine (or outer) side, 2 acyl side, 3 side chain; on linkers, the order of the positions; unused ones are H or OH. Bridge positions count the residues as written; N and C are the ends. Square brackets hold non-standard residues; d marks the D form. Peptide text beside a SMILES is read from it. I, II: the chains in the order shown. Actinocin(9to1) = Cc1c2oc3c(C)ccc(C(=O)[*:1])c3nc-2c(C(=O)[*:2])c(N)c1=O; NMeV = CN[C@H](C(=O)O)C(C)C; Sar = CNCC(=O)O
Observed Property: efflux ratio at 2 h, 10 µM

1) CC(C)n1c(/C=C/C(O)CC(O)CC(=O)O)c(-c2ccc(F)cc2)c2ccccc21 (stereo not given) [FLUVASTATIN] : 12.3
2) C[C@H]1C[C@@H]2[C@H]([C@@H](O)C[C@@]3(C)[C@H]2CC[C@]3(O)C(=O)CO)[C@@]2(C)C=CC(=O)C=C12 [METHYLPREDNISOLONE] : 0.8
3) CCc1c2c(nc3ccc(OC(=O)N4CCC(N5CCCCC5)CC4)cc13)-c1cc3c(c(=O)n1C2)COC(=O)[C@]3(O)CC [IRINOTECAN] : 2.7
4) C=CCN1CC[C@]23c4c5ccc(O)c4O[C@H]2C(=O)CC[C@@]3(O)[C@H]1C5 [NALOXONE] : 0.5
5) CNS(=O)(=O)Cc1ccc2[nH]cc(CCN(C)C)c2c1 : 0.5
6) CCC1=C[C@@H]2CN(C1)Cc1c([nH]c3ccccc13)[C@@](C(=O)OC)(c1cc3c(cc1OC)N(C)[C@H]1[C@@](O)(C(=O)OC)[C@H](OC(C)=O)[C@]4(CC)C=CCN5CC[C@]31[C@@H]54)C2 [VINORELBINE] : 1
7) CC[C@]1(O)C[C@H]2CN(CCc3c([nH]c4ccccc34)[C@@](C(=O)OC)(c3cc4c(cc3OC)N(C=O)[C@H]3[C@@](O)(C(=O)OC)[C@H](OC(C)=O)[C@]5(CC)C=CCN6CC[C@]43[C@@H]65)C2)C1 [VINCRISTINE] : 8.6
8) O=C(O)c1cc(/N=N/c2ccc(O)c(C(=O)O)c2)ccc1O [OLSALAZINE] : 1.9
9) COc1ccc([C@@H]2Sc3ccccc3N(CCN(C)C)C(=O)[C@@H]2OC(C)=O)cc1 [DILTIAZEM] : 0.4
10) O=C1C(CC[S+]([O-])c2ccccc2)C(=O)N(c2ccccc2)N1c1ccccc1 (stereo not given) [SULFINPYRAZONE] : 9
11) C=CC[C@@H]1/C=C(\C)C[C@H](C)C[C@H](OC)[C@H]2O[C@@](O)(C(=O)C(=O)N3CCCC[C@H]3C(=O)O[C@H](/C(C)=C/[C@@H]3CC[C@@H](O)[C@H](OC)C3)[C@H](C)[C@@H](O)CC1=O)[C@H](C)C[C@@H]2OC [TACROLIMUS ANHYDROUS] : 0.7
12) Cc1c(O)cccc1C(=O)N[C@@H](CSc1ccccc1)[C@H](O)CN1C[C@H]2CCCC[C@H]2C[C@H]1C(=O)NC(C)(C)C : 0.7
13) CC1=C(CC(=O)O)c2cc(F)ccc2/C1=C\c1ccc([S+](C)[O-])cc1 (stereo not given) : 2.6
14) O=C(O)CN(CCN(CC(=O)O)Cc1ccccc1O)Cc1ccccc1O : 2
15) Cc1ccccc1N1C(=O)c2cc(S(N)(=O)=O)c(Cl)cc2NC1C (stereo not given) [METOLAZONE] : 2.1
16) O=C(CCCN1CCC(O)(c2ccc(Cl)cc2)CC1)c1ccc(F)cc1 [HALOPERIDOL] : 0.4
17) Cc1c2oc3c(C)ccc(C(=O)N[C@@H]4C(=O)N[C@H](C(C)C)C(=O)N5CCC[C@H]5C(=O)N(C)CC(=O)N(C)[C@@H](C(C)C)C(=O)O[C@@H]4C)c3nc-2c(C(=O)N[C@@H]2C(=O)N[C@H](C(C)C)C(=O)N3CCC[C@H]3C(=O)N(C)CC(=O)N(C)[C@@H](C(C)C)C(=O)O[C@@H]2C)c(N)c1=O [DACTINOMYCIN] (I: T[dV]P[Sar][NMeV] / II: T[dV]P[Sar][NMeV]; ester I:1-I:C, II:1-II:C; linker I:N-II:N via Actinocin(9to1)) : 4
18) Nc1cc(-c2ccncc2)c[nH]c1=O [INAMRINONE] : 3.3
19) COc1cc([C@@H]2c3cc4c(cc3[C@@H](O[C@@H]3O[C@@H]5CO[C@@H](c6cccs6)O[C@H]5[C@H](O)[C@H]3O)[C@H]3COC(=O)[C@H]23)OCO4)cc(OC)c1O [TENIPOSIDE] : 2.1
20) CC[C@@]1(O)C(=O)OCc2c1cc1n(c2=O)Cc2cc3c(CN(C)C)c(O)ccc3nc2-1 [TOPOTECAN] : 13.1
